Cited source: ChEMBL document CHEMBL4376840

# tested.target: Cannabinoid receptor 1 (Homo sapiens)
# Sequence (P21554 whole entry): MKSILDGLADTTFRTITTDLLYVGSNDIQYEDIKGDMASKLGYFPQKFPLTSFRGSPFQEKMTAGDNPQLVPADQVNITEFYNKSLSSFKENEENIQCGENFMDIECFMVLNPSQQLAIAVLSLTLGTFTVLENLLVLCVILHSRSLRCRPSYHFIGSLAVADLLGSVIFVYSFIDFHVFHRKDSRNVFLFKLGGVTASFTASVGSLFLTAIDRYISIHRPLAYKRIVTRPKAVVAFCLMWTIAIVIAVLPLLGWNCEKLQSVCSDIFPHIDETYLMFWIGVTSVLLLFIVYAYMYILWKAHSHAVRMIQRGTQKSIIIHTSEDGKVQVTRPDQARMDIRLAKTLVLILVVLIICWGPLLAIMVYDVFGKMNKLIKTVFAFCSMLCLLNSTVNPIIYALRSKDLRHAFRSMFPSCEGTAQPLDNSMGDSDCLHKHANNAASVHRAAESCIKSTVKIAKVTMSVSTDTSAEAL
# procedure.text: Positive allosteric modulatory activity at human CB1R expressed in CHO-K1 cells assessed as increase in CP55940-induced beta-arrestin2 recruitment after 90 mins in presence of CP55940 at EC20 concentration by pathhunter beta-arrestin assay
# Type: cell-based
pEC50: −log10 of the molar value.
assay.metric: pEC50

{"compound": "O=[N+]([O-])CC(c1ccncc1)c1c(-c2ccccc2)[nH]c2ccccc12 (stereo not given)", "assay.metric": "pEC50", "result.comparator": "=", "test.value": 5.40}
{"compound": "O=[N+]([O-])CC(c1cccc(F)c1)c1c(-c2ccccc2)[nH]c2ccccc12 (stereo not given)", "assay.metric": "pEC50", "result.comparator": "=", "test.value": 5.60}
{"compound": "O=[N+]([O-])CC(c1ccccc1F)c1c(-c2ccccc2)[nH]c2c(F)cccc12 (stereo not given)", "assay.metric": "pEC50", "result.comparator": "=", "test.value": 6.17}
{"compound": "O=[N+]([O-])CC(c1ccccc1)c1c(-c2ccccc2)[nH]c2ccncc12 (stereo not given)", "assay.metric": "pEC50", "result.comparator": "<", "test.value": 5.00}
{"compound": "O=[N+]([O-])CC(c1ccc(F)cc1)c1c(-c2cccc(F)c2)[nH]c2c(F)cccc12 (stereo not given)", "assay.metric": "pEC50", "result.comparator": "=", "test.value": 5.96}
{"compound": "O=[N+]([O-])CC(c1ccccc1)c1c(-c2ccccc2)[nH]c2ccc(F)cc12 (stereo not given)", "assay.metric": "pEC50", "result.comparator": "=", "test.value": 6.13}
{"compound": "O=[N+]([O-])CC(c1ccc(F)cc1)c1c(-c2ccccc2)[nH]c2c(F)cccc12 (stereo not given)", "assay.metric": "pEC50", "result.comparator": "=", "test.value": 6.15}
{"compound": "O=[N+]([O-])CC(c1ccccc1)c1c(-c2cccc(F)c2)[nH]c2ccccc12 (stereo not given)", "assay.metric": "pEC50", "result.comparator": "=", "test.value": 5.89}
{"compound": "O=[N+]([O-])CC(c1ccccn1)c1c(-c2ccccc2)[nH]c2ccccc12 (stereo not given)", "assay.metric": "pEC50", "result.comparator": "<", "test.value": 5.00}
{"compound": "O=[N+]([O-])CC(c1ccccc1)c1c(-c2ccccc2)[nH]c2ncccc12 (stereo not given)", "assay.metric": "pEC50", "result.comparator": "<", "test.value": 5.00}
{"compound": "O=[N+]([O-])CC(c1ccccc1F)c1c(-c2ccccc2)[nH]c2cc(F)ccc12 (stereo not given)", "assay.metric": "pEC50", "result.comparator": "=", "test.value": 5.94}
{"compound": "O=[N+]([O-])CC(c1ccccc1)c1c(-c2cccnc2)[nH]c2ccccc12 (stereo not given)", "assay.metric": "pEC50", "result.comparator": "<", "test.value": 5.00}
{"compound": "O=[N+]([O-])CC(c1ccc(F)cc1)c1c(-c2ccccc2)[nH]c2ccccc12 (stereo not given)", "assay.metric": "pEC50", "result.comparator": "<", "test.value": 5.00}
{"compound": "O=[N+]([O-])CC(c1ccccc1)c1c(-c2ccccc2)[nH]c2cc(F)ccc12 (stereo not given)", "assay.metric": "pEC50", "result.comparator": "=", "test.value": 5.96}
{"compound": "O=[N+]([O-])CC(c1ccccc1)c1c(-c2ccncc2)[nH]c2ccccc12 (stereo not given)", "assay.metric": "pEC50", "result.comparator": "=", "test.value": 5.80}
{"compound": "O=[N+]([O-])CC(c1ccccc1F)c1c(-c2cccc(F)c2)[nH]c2c(F)cccc12 (stereo not given)", "assay.metric": "pEC50", "result.comparator": "=", "test.value": 6.29}
{"compound": "O=[N+]([O-])CC(c1ccccc1)c1c(-c2ccccc2)[nH]c2cnccc12 (stereo not given)", "assay.metric": "pEC50", "result.comparator": "<", "test.value": 5.00}
{"compound": "O=[N+]([O-])CC(c1ccccc1)c1c(-c2ccccc2F)[nH]c2ccccc12 (stereo not given)", "assay.metric": "pEC50", "result.comparator": "=", "test.value": 6.15}
{"compound": "O=[N+]([O-])CC(c1ccccc1)c1c(-c2ccc(F)cc2)[nH]c2ccccc12 (stereo not given)", "assay.metric": "pEC50", "result.comparator": "<", "test.value": 5.00}
{"compound": "O=[N+]([O-])CC(c1ccccc1F)c1c(-c2ccccc2)[nH]c2ccccc12 (stereo not given)", "assay.metric": "pEC50", "result.comparator": "=", "test.value": 5.97}
